Multi-source literature compilation: Ki on 5-hydroxytryptamine receptor 5A (Homo sapiens, UniProt P47898).

Solved entries (count: 5):
CC1(C)C=C(c2ccc(F)c(F)c2F)c2cc(C(=O)N=C(N)N)ccc2O1	30 to 300 nM
COc1cccc(OC)c1Cn1cc(-c2ccc(F)cc2)nc1N	< 600 nM
COc1cccc(OC)c1CNC(=N)Nc1nc2c(s1)CN(C(C)=O)CC2	< 50 nM
NC(N)=NC(=O)N1Cc2c(-c3c(F)cc(F)cc3F)ccc(F)c2C2(CC2)C1	0.88 nM
COc1ccccc1Cc1cc2cc(OC)c(OC)cc2nc1N	< 300 nM

Task: Lab note: need Ki with 5-hydroxytryptamine receptor 5A (Homo sapiens, UniProt P47898) for entry COc1cccc(F)c1Cc1cc2ncccc2nc1N , please look it up.
Output: < 300 nM

Task: Lab note: need Ki with 5-hydroxytryptamine receptor 5A (Homo sapiens, UniProt P47898) for entry Cc1cc(Cl)ccc1C1=CCOc2ccc(C(=O)N=C(N)N)cc21 , please look it up.
Output: 0.3 to 3 nM

Task: Lab note: need Ki with 5-hydroxytryptamine receptor 5A (Homo sapiens, UniProt P47898) for entry COc1cccc(OC)c1CNC(=N)Nc1nc(-c2ccc(F)cc2)c(C)s1 , please look it up.
Output: < 50 nM

Task: Lab note: need Ki with 5-hydroxytryptamine receptor 5A (Homo sapiens, UniProt P47898) for entry Cc1nc(-c2cccc3ccc(C(=O)N=C(N)N)cc23)ccc1F , please look it up.
Output: 30 to 300 nM

###

pKi: −log10 of the molar value.
Multi-source literature compilation: pKi on UniProt P47898.

N/C(=N\C(=O)c1ccc2c3ccccc3n(C3CCOCC3)c2c1)NCC1CCCCC1	≥ 7.30
COc1cccc(OC)c1Cc1cc2cnccc2nc1N	> 6.52
CC(C)n1c2cc(C(=O)N=C(N)N)ccc2c2c(O)cccc21	≥ 7.30

Task: Would you kindly share the measured pKi for COc1ccc(CN2Cc3ccccc3N=C2N)c(OC)c1 ?
Output: > 5.00

Task: Would you kindly share the measured pKi for N#Cc1ccccc1-c1cccc2ccc(C(=O)N=C(N)N)cc12 ?
Output: 7.52 to 8.52

Task: Would you kindly share the measured pKi for COCCOc1ccc2nc(N)c(Cc3ccccc3OC)cc2c1 ?
Output: > 6.52

Task: Would you kindly share the measured pKi for NC(N)=NC(=O)c1ccc2cccc(-c3cccc4ncccc34)c2c1 ?
Output: 8.52 to 9.52

Task: Would you kindly share the measured pKi for COc1ccc(C(F)(F)F)cc1CNC(=N)Nc1nc(-c2ccccc2)cs1 ?
Output: < 6.30

Task: Would you kindly share the measured pKi for CC1C=C(c2cccnc2Cl)c2cc(C(=O)N=C(N)N)ccc2O1 (centres unmarked) ?
Output: 6.52 to 7.52

Task: Would you kindly share the measured pKi for COc1cccc(C)c1CNC(=N)Nc1nc(-c2ccccn2)cs1 ?
Output: > 7.30

Task: Would you kindly share the measured pKi for N#Cc1cc(-c2cccc3ccc(C(=O)N=C(N)N)cc23)ccn1 ?
Output: 7.52 to 8.52

Task: Would you kindly share the measured pKi for COc1cc(F)ccc1C1=C(C)CCc2ccc(C(=O)N=C(N)N)cc21 ?
Output: 7.52 to 8.52

Task: Would you kindly share the measured pKi for COc1ccccc1CNC(=N)Nc1nc(-c2ccccc2Cl)cs1 ?
Output: 6.30 to 7.30

Task: Would you kindly share the measured pKi for COc1ccccc1CN=C(N)Nc1ccc(I)cn1 ?
Output: > 7.00

###

pKi: −log10 of the molar value.
Multi-source literature compilation: pKi on 5-hydroxytryptamine receptor 5A (Homo sapiens, UniProt P47898).

Solved entries (count: 4):
NC(N)=NC(=O)c1ccc2c(c1)C(c1ccc(C(F)(F)F)cc1C(F)(F)F)=CCO2	6.52 to 7.52
N#Cc1cc(C2=CCOc3ccc(C(=O)N=C(N)N)cc32)ccc1F	6.52 to 7.52
NC(N)=NC(=O)c1ccc2cccc(-c3cc(C4CC4)ncc3Cl)c2c1	8.52 to 9.52
COc1ccccc1CNC(=N)Nc1cccc(Br)n1	> 7.00

Task: Lab note: need pKi with 5-hydroxytryptamine receptor 5A (Homo sapiens, UniProt P47898) for entry CC1(C)C=C(c2ccccc2)c2cc(C(=O)N=C(N)N)ccc2O1 , please look it up.
Output: 6.52 to 7.52

Task: Lab note: need pKi with 5-hydroxytryptamine receptor 5A (Homo sapiens, UniProt P47898) for entry Cc1nc2cccc(-c3cccc4ccc(C(=O)N=C(N)N)cc34)c2o1 , please look it up.
Output: 7.52 to 8.52

Task: Lab note: need pKi with 5-hydroxytryptamine receptor 5A (Homo sapiens, UniProt P47898) for entry NC(N)=NC(=O)c1ccc2cccc(-c3cccnc3)c2c1 , please look it up.
Output: 7.52 to 8.52

Task: Lab note: need pKi with 5-hydroxytryptamine receptor 5A (Homo sapiens, UniProt P47898) for entry COc1ccc(CNC(=N)Nc2nccs2)cc1 , please look it up.
Output: < 6.30

Task: Lab note: need pKi with 5-hydroxytryptamine receptor 5A (Homo sapiens, UniProt P47898) for entry COc1cccc(OC)c1CNC(=N)Nc1nc(C2CCCN2S(=O)(=O)c2ccccc2)cs1 (stereo not drawn) , please look it up.
Output: > 7.30

###

Multi-source literature compilation: Ki on 5-hydroxytryptamine receptor 5A (Homo sapiens, UniProt P47898).

N#Cc1ccccc1C1=CCOc2ccc(C(=O)N=C(N)N)cc21	3 to 30 nM
NC(N)=NC(=O)c1ccc2cccc(-c3c(O)ccc(F)c3F)c2c1	0.3 to 3 nM
CCOc1ccc2nc(N)c(Cc3c(OC)cccc3OC)cc2c1	< 300 nM

Task: Lab note: need Ki with 5-hydroxytryptamine receptor 5A (Homo sapiens, UniProt P47898) for entry NC(N)=NC(=O)c1ccc2c(c1)C(c1ccccc1O)=CCO2 , please look it up.
Output: 0.3 to 3 nM

Task: Lab note: need Ki with 5-hydroxytryptamine receptor 5A (Homo sapiens, UniProt P47898) for entry NC(N)=NC(=O)c1ccc2cccc(-c3ccccc3OC(F)F)c2c1 , please look it up.
Output: 3 to 30 nM

Task: Lab note: need Ki with 5-hydroxytryptamine receptor 5A (Homo sapiens, UniProt P47898) for entry CCNC(=Nc1nccs1)NCc1ccccc1OC , please look it up.
Output: > 500 nM

Task: Lab note: need Ki with 5-hydroxytryptamine receptor 5A (Homo sapiens, UniProt P47898) for entry N/C(=N\C(=O)c1ccc2c3ccccc3n(C3CCOCC3)c2c1)NCC1COCCO1 (stereo not drawn) , please look it up.
Output: ≤ 50 nM

Task: Lab note: need Ki with 5-hydroxytryptamine receptor 5A (Homo sapiens, UniProt P47898) for entry COc1ccc2cc(Cc3ccccc3OC)c(N)nc2c1 , please look it up.
Output: < 300 nM

Task: Lab note: need Ki with 5-hydroxytryptamine receptor 5A (Homo sapiens, UniProt P47898) for entry COc1cccc(OC)c1CNC(=N)Nc1nc(-c2ncc(Cl)cc2Cl)cs1 , please look it up.
Output: < 50 nM

###

Multi-source literature compilation: pKi on 5-hydroxytryptamine receptor 5A (Homo sapiens, UniProt P47898).
pKi: −log10 of the molar value.

Solved entries (count: 4):
N#Cc1c(Cl)cccc1-c1cccc2ccc(C(=O)N=C(N)N)cc12	8.52 to 9.52
COc1ccccc1Cc1cc2cc(F)c(F)cc2nc1N	> 6.52
N/C(=N\C(=O)c1ccc2c3ccccc3n(C3CCOCC3)c2c1)NC1CCOCC1	≥ 7.30
COc1ccccc1Cc1cc2ccc(N(C)C)cc2nc1N	> 6.52

Task: Lab note: need pKi with 5-hydroxytryptamine receptor 5A (Homo sapiens, UniProt P47898) for entry COc1ccc2ccccc2c1CNC(=N)Nc1nc(-c2ccccc2)cs1 , please look it up.
Output: 6.30 to 7.30

###

Multi-source literature compilation: Ki on 5-hydroxytryptamine receptor 5A (Homo sapiens, UniProt P47898).

Solved entries (count: 8):
NC(N)=NC(=O)c1ccc2ccc(Cl)c(-c3ccncc3F)c2c1	0.3 to 3 nM
NC(N)=NC(=O)c1ccc2cccc(-c3c[nH]c4ccccc34)c2c1	3 to 30 nM
COc1cc(F)ccc1C1=CCCc2ccc(C(=O)N=C(N)N)cc21	0.3 to 3 nM
NC(N)=NC(=O)c1ccc2cccc(-c3cc(F)c(F)cc3F)c2c1	0.3 to 3 nM
COc1ccccc1C1=CCCOc2ccc(C(=O)N=C(N)N)cc21	3 to 30 nM
NC(N)=NC(=O)c1ccc2cccc(-c3cccc(C(F)(F)F)n3)c2c1	3 to 30 nM
NC(N)=NC(=O)c1ccc2ccc(Cl)c(-c3ccncc3)c2c1	0.3 to 3 nM
NC(N)=NC(=O)c1cc(Cl)c2c3ccccc3n(C3CCOCC3)c2c1	≤ 50 nM

Task: Lab note: need Ki with 5-hydroxytryptamine receptor 5A (Homo sapiens, UniProt P47898) for entry NC(N)=NC(=O)c1ccc2cccc(-c3ccc(Cl)cc3F)c2c1 , please look it up.
Output: 0.3 to 3 nM

Task: Lab note: need Ki with 5-hydroxytryptamine receptor 5A (Homo sapiens, UniProt P47898) for entry NC(N)=NC(=O)c1ccc2c(c1)C(c1ccoc1)=CCC2 , please look it up.
Output: 3 to 30 nM

Task: Lab note: need Ki with 5-hydroxytryptamine receptor 5A (Homo sapiens, UniProt P47898) for entry NC(N)=NC(=O)c1ccc2c(c1)C(c1c(F)cccc1F)=CCC2 , please look it up.
Output: 0.3 to 3 nM

Task: Lab note: need Ki with 5-hydroxytryptamine receptor 5A (Homo sapiens, UniProt P47898) for entry COc1cccc(OC)c1Cn1cc(-c2cc(C)cs2)nc1N , please look it up.
Output: < 600 nM

Task: Lab note: need Ki with 5-hydroxytryptamine receptor 5A (Homo sapiens, UniProt P47898) for entry NC(N)=NC(=O)c1ccc2c(c1)C(c1ccc(F)c(F)c1F)=CCC2 , please look it up.
Output: 0.3 to 3 nM

Task: Lab note: need Ki with 5-hydroxytryptamine receptor 5A (Homo sapiens, UniProt P47898) for entry COc1cccc(F)c1CNC(=N)Nc1ncccc1C , please look it up.
Output: < 100 nM

Task: Lab note: need Ki with 5-hydroxytryptamine receptor 5A (Homo sapiens, UniProt P47898) for entry COc1cccc(Cl)c1Cc1cc2cc3c(cc2nc1N)OCO3 , please look it up.
Output: < 300 nM

Task: Lab note: need Ki with 5-hydroxytryptamine receptor 5A (Homo sapiens, UniProt P47898) for entry N/C(=N\C(=O)c1ccc2c(c1)C(c1c(F)cccc1F)=CCO2)NCC1CC1 , please look it up.
Output: 3 to 30 nM

Task: Lab note: need Ki with 5-hydroxytryptamine receptor 5A (Homo sapiens, UniProt P47898) for entry NC(N)=NC(=O)c1ccc2cccc(-c3ccc(Cl)cn3)c2c1 , please look it up.
Output: 3 to 30 nM

Task: Lab note: need Ki with 5-hydroxytryptamine receptor 5A (Homo sapiens, UniProt P47898) for entry COc1cccc(Cl)c1Cn1cc(-c2ccsc2)nc1N , please look it up.
Output: < 600 nM

Task: Lab note: need Ki with 5-hydroxytryptamine receptor 5A (Homo sapiens, UniProt P47898) for entry NC(N)=NC(=O)c1ccc2cccc(-c3cc(Cl)ccc3Cl)c2c1 , please look it up.
Output: 0.3 to 3 nM
